- condition-set: in DMSO, 328.15 K
reported-property: solubility (mole fraction)
A bare number is all that is needed in reply.

Exercise: Entry `O=C(O)c1ccc(C(=O)O)cc1` has what solubility (mole fraction)?
Key: 0.104

----------
- condition-set: in pyridine, 318.15 K
reported-property: solubility (mole fraction)
A bare number is all that is needed in reply.

Exercise: Entry `O=C(O)c1ccc(C(=O)O)cc1` has what solubility (mole fraction)?
Key: 0.0767

----------
- condition-set: in DMAc, 318.15 K
reported-property: solubility (mole fraction)
A bare number is all that is needed in reply.

Exercise: Entry `O=C(O)c1ccc(C(=O)O)cc1` has what solubility (mole fraction)?
Key: 0.0199

----------
- condition-set: in DMAc, 348.15 K
reported-property: solubility (mole fraction)
A bare number is all that is needed in reply.

Exercise: Entry `O=C(O)c1ccc(C(=O)O)cc1` has what solubility (mole fraction)?
Key: 0.065

----------
- condition-set: in 2-ethylhexanol, 313.15 K
reported-property: solubility (mole fraction)

Exercise: Entry `O=C(O)c1ccc(C(=O)O)cc1` has what solubility (mole fraction)?
Key: 0.000293

----------
- condition-set: in 2-ethylhexanol, 353.15 K
reported-property: solubility (mole fraction)
A bare number is all that is needed in reply.

Exercise: Entry `O=C(O)c1ccc(C(=O)O)cc1` has what solubility (mole fraction)?
Key: 0.000812

----------
- condition-set: in DMSO, 313.15 K
reported-property: solubility (mole fraction)
A bare number is all that is needed in reply.

Exercise: Entry `O=C(O)c1ccc(C(=O)O)cc1` has what solubility (mole fraction)?
Key: 0.0964

----------
- condition-set: in NMP, 338.15 K
reported-property: solubility (mole fraction)
A bare number is all that is needed in reply.

Exercise: Entry `O=C(O)c1ccc(C(=O)O)cc1` has what solubility (mole fraction)?
Key: 0.0952

----------
- condition-set: in DMSO, 323.15 K
reported-property: solubility (mole fraction)
A bare number is all that is needed in reply.

Exercise: Entry `O=C(O)c1ccc(C(=O)O)cc1` has what solubility (mole fraction)?
Key: 0.102

----------
- condition-set: in pyridine, 363.15 K
reported-property: solubility (mole fraction)
A bare number is all that is needed in reply.

Exercise: Entry `O=C(O)c1ccc(C(=O)O)cc1` has what solubility (mole fraction)?
Key: 0.0787

----------
- condition-set: in DMAc, 363.15 K
reported-property: solubility (mole fraction)
A bare number is all that is needed in reply.

Exercise: Entry `O=C(O)c1ccc(C(=O)O)cc1` has what solubility (mole fraction)?
Key: 0.0886

----------
- condition-set: in NMP, 313.15 K
reported-property: solubility (mole fraction)
A bare number is all that is needed in reply.

Exercise: Entry `O=C(O)c1ccc(C(=O)O)cc1` has what solubility (mole fraction)?
Key: 0.0558

----------
- condition-set: in 2-ethylhexanol, 358.15 K
reported-property: solubility (mole fraction)
A bare number is all that is needed in reply.

Exercise: Entry `O=C(O)c1ccc(C(=O)O)cc1` has what solubility (mole fraction)?
Key: 0.000915

----------
- condition-set: in NMP, 318.15 K
reported-property: solubility (mole fraction)
A bare number is all that is needed in reply.

Exercise: Entry `O=C(O)c1ccc(C(=O)O)cc1` has what solubility (mole fraction)?
Key: 0.0646

----------
- condition-set: in 2-ethylhexanol, 363.15 K
reported-property: solubility (mole fraction)
A bare number is all that is needed in reply.

Exercise: Entry `O=C(O)c1ccc(C(=O)O)cc1` has what solubility (mole fraction)?
Key: 0.00102

----------
- condition-set: in DMF, 338.15 K
reported-property: solubility (mole fraction)
A bare number is all that is needed in reply.

Exercise: Entry `O=C(O)c1ccc(C(=O)O)cc1` has what solubility (mole fraction)?
Key: 0.0383

----------
- condition-set: in DMAc, 338.15 K
reported-property: solubility (mole fraction)

Exercise: Entry `O=C(O)c1ccc(C(=O)O)cc1` has what solubility (mole fraction)?
Key: 0.0453

----------
- condition-set: in 2-ethylhexanol, 328.15 K
reported-property: solubility (mole fraction)
A bare number is all that is needed in reply.

Exercise: Entry `O=C(O)c1ccc(C(=O)O)cc1` has what solubility (mole fraction)?
Key: 0.000429

----------
- condition-set: in DMF, 353.15 K
reported-property: solubility (mole fraction)
A bare number is all that is needed in reply.

Exercise: Entry `O=C(O)c1ccc(C(=O)O)cc1` has what solubility (mole fraction)?
Key: 0.0429

----------
- condition-set: in pyridine, 323.15 K
reported-property: solubility (mole fraction)
A bare number is all that is needed in reply.

Exercise: Entry `O=C(O)c1ccc(C(=O)O)cc1` has what solubility (mole fraction)?
Key: 0.0766

----------
- condition-set: in pyridine, 338.15 K
reported-property: solubility (mole fraction)
A bare number is all that is needed in reply.

Exercise: Entry `O=C(O)c1ccc(C(=O)O)cc1` has what solubility (mole fraction)?
Key: 0.077

----------
- condition-set: in NMP, 328.15 K
reported-property: solubility (mole fraction)
A bare number is all that is needed in reply.

Exercise: Entry `O=C(O)c1ccc(C(=O)O)cc1` has what solubility (mole fraction)?
Key: 0.0838

----------
- condition-set: in DMF, 348.15 K
reported-property: solubility (mole fraction)
A bare number is all that is needed in reply.

Exercise: Entry `O=C(O)c1ccc(C(=O)O)cc1` has what solubility (mole fraction)?
Key: 0.0412

----------
- condition-set: in DMF, 318.15 K
reported-property: solubility (mole fraction)
A bare number is all that is needed in reply.

Exercise: Entry `O=C(O)c1ccc(C(=O)O)cc1` has what solubility (mole fraction)?
Key: 0.0337

----------
- condition-set: in 2-ethylhexanol, 318.15 K
reported-property: solubility (mole fraction)
A bare number is all that is needed in reply.

Exercise: Entry `O=C(O)c1ccc(C(=O)O)cc1` has what solubility (mole fraction)?
Key: 0.000335

----------
- condition-set: in pyridine, 313.15 K
reported-property: solubility (mole fraction)
A bare number is all that is needed in reply.

Exercise: Entry `O=C(O)c1ccc(C(=O)O)cc1` has what solubility (mole fraction)?
Key: 0.0767

----------
- condition-set: in NMP, 333.15 K
reported-property: solubility (mole fraction)
A bare number is all that is needed in reply.

Exercise: Entry `O=C(O)c1ccc(C(=O)O)cc1` has what solubility (mole fraction)?
Key: 0.094

----------
- condition-set: in NMP, 358.15 K
reported-property: solubility (mole fraction)
A bare number is all that is needed in reply.

Exercise: Entry `O=C(O)c1ccc(C(=O)O)cc1` has what solubility (mole fraction)?
Key: 0.0999

----------
- condition-set: in pyridine, 358.15 K
reported-property: solubility (mole fraction)
A bare number is all that is needed in reply.

Exercise: Entry `O=C(O)c1ccc(C(=O)O)cc1` has what solubility (mole fraction)?
Key: 0.0783

----------
- condition-set: in DMF, 358.15 K
reported-property: solubility (mole fraction)
A bare number is all that is needed in reply.

Exercise: Entry `O=C(O)c1ccc(C(=O)O)cc1` has what solubility (mole fraction)?
Key: 0.0442

----------
- condition-set: in DMF, 363.15 K
reported-property: solubility (mole fraction)
A bare number is all that is needed in reply.

Exercise: Entry `O=C(O)c1ccc(C(=O)O)cc1` has what solubility (mole fraction)?
Key: 0.0455

----------
- condition-set: in DMSO, 363.15 K
reported-property: solubility (mole fraction)
A bare number is all that is needed in reply.

Exercise: Entry `O=C(O)c1ccc(C(=O)O)cc1` has what solubility (mole fraction)?
Key: 0.121

----------
- condition-set: in DMSO, 353.15 K
reported-property: solubility (mole fraction)

Exercise: Entry `O=C(O)c1ccc(C(=O)O)cc1` has what solubility (mole fraction)?
Key: 0.116

----------
- condition-set: in NMP, 363.15 K
reported-property: solubility (mole fraction)
A bare number is all that is needed in reply.

Exercise: Entry `O=C(O)c1ccc(C(=O)O)cc1` has what solubility (mole fraction)?
Key: 0.101

----------
- condition-set: in DMAc, 343.15 K
reported-property: solubility (mole fraction)

Exercise: Entry `O=C(O)c1ccc(C(=O)O)cc1` has what solubility (mole fraction)?
Key: 0.0541

----------
- condition-set: in DMF, 313.15 K
reported-property: solubility (mole fraction)

Exercise: Entry `O=C(O)c1ccc(C(=O)O)cc1` has what solubility (mole fraction)?
Key: 0.0325

----------
- condition-set: in DMSO, 318.15 K
reported-property: solubility (mole fraction)
A bare number is all that is needed in reply.

Exercise: Entry `O=C(O)c1ccc(C(=O)O)cc1` has what solubility (mole fraction)?
Key: 0.0989

----------
- condition-set: in DMSO, 343.15 K
reported-property: solubility (mole fraction)
A bare number is all that is needed in reply.

Exercise: Entry `O=C(O)c1ccc(C(=O)O)cc1` has what solubility (mole fraction)?
Key: 0.11

----------
- condition-set: in DMAc, 358.15 K
reported-property: solubility (mole fraction)
A bare number is all that is needed in reply.

Exercise: Entry `O=C(O)c1ccc(C(=O)O)cc1` has what solubility (mole fraction)?
Key: 0.0823
